Tested on: SN12C
run-description: NCI tumour cell line growth inhibition, 48 h
Activity calls are given as the source filed them. Cut-off read from the data, not from the text of the source: active = GI50 up to about 1.1 µM and inactive = higher.
Returns: one label drawn from 1.0 for active, 0.0 for inactive

Each molecule tested received a call. Report the one for "O=C1C=CC(=O)C(CNc2ccc(C(=O)OC34CC5CC(CC(C5)C3)C4)cc2)=C1" .
0.0

Each molecule tested received a call. Report the one for "CCc1cccc(C(C)C)c1NC(=O)C(=O)Nn1c(S)nc2ccccc2c1=O" .
0.0

Each molecule tested received a call. Report the one for Cc1ccc(NC(=O)C2C(=O)N(c3ccc(C)cc3)C(=O)/C2=N\NC(N)=S)cc1 (stereo not given) .
0.0

Each molecule tested received a call. Report the one for "O=C(NC(C(F)(F)F)(C(F)(F)F)P(=O)(Cc1ccccc1)Cc1ccccc1)C(C(F)(F)F)C(F)(F)F" .
0.0

Each molecule tested received a call. Report the one for "COc1cc(C[P+](c2ccccc2)(c2ccccc2)c2ccccc2)cc(OC)c1OC" .
0.0

Each molecule tested received a call. Report the one for CC1(C)OC(=S)N(c2ccccc2)C12C=Cc1cc3ccccc3cc1O2 (stereo not given) .
0.0

Each molecule tested received a call. Report the one for "N#CCCN(CCC#N)c1ccc(/C=C(/NC(=O)Nc2ccccc2Cl)NC(=O)c2cc([N+](=O)[O-])ccc2Cl)cc1" .
0.0

Each molecule tested received a call. Report the one for "C/C(=N\Nc1nc2cc(Cl)ccc2s1)c1ccccn1" .
1.0

Each molecule tested received a call. Report the one for "O=S(=O)(c1cnccc1N1CCN(CCO)CC1)N1CCCC1" .
0.0

Each molecule tested received a call. Report the one for "COc1cc(OC)c(Oc2cccc(OC)c2OC)c(OC)c1" .
0.0

---

Test system: M14
run-description: NCI tumour cell line growth inhibition, 48 h
Calls of active or inactive are those of the source. No stated cut-off is given here; in the data, active = GI50 up to about 1.1 µM and inactive = higher.
Returns: one label drawn from t for active, f for inactive

Each compound tested received a call. Report the one for "CN(C)c1ccc(/C=C/c2cc(-c3ccccc3)[n+](C)n2-c2ccccc2)cc1" .
t

Each compound tested received a call. Report the one for "O=C(Sc1c(-c2ccccc2)c(=O)n(-c2ccccc2)c(=S)n1-c1ccccc1)c1cccs1" .
f

Each compound tested received a call. Report the one for "CN(C)CCCNc1ccc2c(=O)n(CCN(C)C)c(=O)n3c4ccccc4c(=O)c1c23" .
t

Each compound tested received a call. Report the one for "Cc1nc2nnnn2c2c1C(=O)Nc1ccccc1N2" .
f

Each compound tested received a call. Report the one for Cc1ccc(CC(Cc2ccccc2C)C(=O)O)c(C(=O)O)c1 (stereo not given) .
f

---

System: MDA-MB-435
run-description: NCI tumour cell line growth inhibition, 48 h
The source made the active and inactive calls. Cut-off read from the data, not from the text of the source: active = GI50 up to about 1.1 µM and inactive = higher.
Returns: one label drawn from 1.0 for active, 0.0 for inactive

Each compound tested received a call. Report the one for "C[C@H]1CC[C@@H]2[C@@H](C)[C@H]3[C@H](C[C@H]4[C@@H]5CC=C6C[C@@H](O)CC[C@]6(C)[C@H]5CC[C@]34C)N2C1" .
0.0

Each compound tested received a call. Report the one for Brc1ccc(C2C3CSc4ccccc4C3=NN2c2ccccc2)cc1 (stereo unspecified) .
0.0

Each compound tested received a call. Report the one for "COc1cc2c(c(N)c1OC)C(=O)/C(=C/c1cc(C)c(O)c(C)c1)C2" .
1.0

Each compound tested received a call. Report the one for CCCC[C@H]1C(=O)O[C@H](C)[C@H](NC(=O)c2cccc(NC=O)c2O)C(=O)O[C@@H](C)[C@@H]1OC(=O)CC(C)C [ANTIMYCIN A3] .
1.0

Each compound tested received a call. Report the one for "CC#CC#C/C(=C/C=CC(=O)OC)SC" .
0.0

Each compound tested received a call. Report the one for "N=C(N)NS(=O)(=O)c1ccc(Nc2c3ccccc3nc3c(C(=O)NC(CO)(CO)CO)cccc23)cc1" .
0.0

Each compound tested received a call. Report the one for "CCOC(=O)/C=C/[C@H](O[Si](c1ccccc1)(c1ccccc1)c1ccccc1)C(C)(C)C" .
0.0

Each compound tested received a call. Report the one for COc1ccc(-c2coc3cc(OC)cc(O)c3c2=O)cc1 [4',7-DIMETHOXY-5-HYDROXYGENISTEIN] .
0.0

Each compound tested received a call. Report the one for "CCOC(=O)c1nc2ccccc2nc1Oc1ccc(C(=O)OC)cc1" .
0.0

Each compound tested received a call. Report the one for "C1=N\c2ccc(cc2)/N=C\c2ccccc2OCc2cccc(n2)COc2ccccc2/1" .
0.0

Each compound tested received a call. Report the one for C/C1=C/C2OC(=O)C3(C)C2C(CC2(C)OC1=CC2=O)OC3(O)C(C)C (stereo unspecified) .
0.0
